Hello, the source for this data is patent US12187723B2, in case you need it.

target: human TLR7 (Homo sapiens); test: TLR7 inhibition reporter assay (HEK-Blue SEAP); conditions: HEK-Blue cells overexpressing human TLR7, gardiquimod 7.5 μM, 22 hour incubation
MEASURED QUANTITY: pIC50
Scale for pIC50: -log10 of concentration given in mol/L; no unit attached.

// below: answered molecules
> print(dat)
                                   molecule  measured.quantity  reported
1  COc1cc(-c2cc3[nH]c(=O)n(C4CCC(N5CCC(F)(F)C5)CC4)c3cc2C(C)C)cn2ncnc12 (single isomer, unassigned) [Example 295]              pIC50      7.38
2  CCc1cc2c(cc1-c1cc(OC)c3ncnn3c1)[nH]c(=O)n2[C@@H]1CCCN(CC2CCCC2)C1 [Example 209]              pIC50      8.10
3  Cc1cc2c(cc1-c1cc(C)c3ncnn3c1)[nH]c(=O)n2[C@@H]1CCCN(C(C)C)C1 [Example 17]              pIC50      7.88

Query for human TLR7 (Homo sapiens): what pIC50 does the record show for Cc1c(-c2cc3[nH]c(=O)n(C4CCC(N5CC(F)C5)CC4)c3cc2C(C)C)cn2ncnc2c1C (stereo not drawn) [Example 279] ?
8.54

Record COc1cc(-c2cc3[nH]c(=O)n(C4CCC(N5CCNC(=O)C5)CC4)c3cc2C(C)C)cn2ncnc12 (single isomer, unassigned) [Example 234] : what is its pIC50 with human TLR7 (Homo sapiens)?
7.37

Query the reported pIC50 for human TLR7 (Homo sapiens); item: COc1cc(-c2cc3[nH]c(=O)n([C@H]4CCCN(C5CCOCC5)C4)c3cc2C(C)C)cn2ncnc12 [Example 124]
7.20

Param readout= pIC50; system= human TLR7 (Homo sapiens); entry= CCc1cc2c(cc1-c1cc(OC)c3ncnn3c1)[nH]c(=O)n2[C@@H]1CCCN(C2CCOC2)C1 (stereo partly drawn) [Example 212] ; returns value.
7.60

For the record Cc1cc2c(cc1-c1cc(C)c3ncnn3c1)[nH]c(=O)n2[C@H]1CCCN(C(=O)CN(C)C)C1 [Example 103] , what value of pIC50 is listed for human TLR7 (Homo sapiens)?
6.67

human TLR7 (Homo sapiens) / pIC50 / Cc1cc2c(cc1-c1cc(C)c3ncnn3c1)[nH]c(=O)n2[C@H]1CC[C@@H](NC(C)C)CC1 [Example 22] : value?
8.32

* * *

Biological target: human TLR7 (Homo sapiens)
Sequence (Q9NYK1 27-1049): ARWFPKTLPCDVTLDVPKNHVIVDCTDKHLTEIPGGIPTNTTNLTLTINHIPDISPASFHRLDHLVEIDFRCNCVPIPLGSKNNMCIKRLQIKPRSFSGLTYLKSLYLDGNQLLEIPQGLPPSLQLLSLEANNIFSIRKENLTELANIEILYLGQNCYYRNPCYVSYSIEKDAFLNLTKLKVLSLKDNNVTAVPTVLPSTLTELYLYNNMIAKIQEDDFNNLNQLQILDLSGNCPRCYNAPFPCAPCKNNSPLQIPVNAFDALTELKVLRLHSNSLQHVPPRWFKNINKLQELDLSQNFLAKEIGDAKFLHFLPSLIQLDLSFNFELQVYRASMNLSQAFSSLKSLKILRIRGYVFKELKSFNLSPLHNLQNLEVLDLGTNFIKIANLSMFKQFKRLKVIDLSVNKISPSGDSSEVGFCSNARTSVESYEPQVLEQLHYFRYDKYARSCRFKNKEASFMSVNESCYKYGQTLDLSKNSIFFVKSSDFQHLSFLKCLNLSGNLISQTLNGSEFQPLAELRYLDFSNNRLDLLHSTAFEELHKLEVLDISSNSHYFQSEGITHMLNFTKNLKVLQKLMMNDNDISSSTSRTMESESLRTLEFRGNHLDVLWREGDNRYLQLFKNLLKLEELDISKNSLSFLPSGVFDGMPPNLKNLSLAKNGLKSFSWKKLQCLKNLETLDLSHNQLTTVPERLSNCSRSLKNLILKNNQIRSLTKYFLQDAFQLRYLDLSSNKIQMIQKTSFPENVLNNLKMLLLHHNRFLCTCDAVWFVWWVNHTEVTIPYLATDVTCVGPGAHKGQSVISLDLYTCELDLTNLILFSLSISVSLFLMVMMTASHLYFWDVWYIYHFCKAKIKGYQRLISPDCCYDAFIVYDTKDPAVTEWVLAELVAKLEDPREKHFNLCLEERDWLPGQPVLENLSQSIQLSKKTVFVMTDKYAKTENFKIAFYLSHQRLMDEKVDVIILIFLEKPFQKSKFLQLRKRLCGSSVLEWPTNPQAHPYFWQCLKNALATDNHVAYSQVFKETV
Experiment: TLR7 inhibition reporter assay (HEK-Blue SEAP)
Settings: HEK-Blue cells overexpressing human TLR7, gardiquimod 7.5 μM, 22 hour incubation
Overview of recorded pIC50 for various molecules
Value format note: pIC50 is -log10 of concentration (mol/L); just state the number.

> print(dat)
                                   molecule  reported
1  COc1c(C)c(-c2cc3[nH]c(=O)n(C4CCC(N5CCC6(CC5)COC6)CC4)c3cc2C(C)C)cn2ncnc12 (single isomer, unassigned) [Example 268]      7.80

Checklist item: pIC50 tested on human TLR7 (Homo sapiens), entry CCN1CCC[C@@H](n2c(=O)[nH]c3cc(-c4cc(OC)c5ncnn5c4)c(C(C)C)cc32)C1 (single isomer, unassigned) [Example 144] , value?
8.07

API: value(readout=pIC50, system=human TLR7 (Homo sapiens)) for record COc1cc(-c2cc3[nH]c(=O)n(C4CCC(N5CC(O)(C(F)(F)F)C5)CC4)c3cc2C(C)C)cn2ncnc12 (single isomer, unassigned) [Example 242]
7.98
